Origin of values: patent US9381200B2

Tested on: P. aeruginosa Ps 32
Experiment: Antibacterial activity (MIC) against MDR Gram negative strains
Format: cell-based
Details: Pseudomonas aeruginosa, PS32; Table 5; P. aeruginosa Ps 32; read-out: MIC
PARAMETER_MEASURED: MIC (mg/L)

Examples with their reported MIC follow.
COMPOUND: NCCC(=O)NNC(=O)[C@H]1CC[C@@H]2CN1C(=O)N2OS(=O)(=O)O (relative stereo) [Example 8]
MIC [mg/L]: 8
//
COMPOUND: NCCCC(=O)NNC(=O)[C@H]1CC[C@@H]2CN1C(=O)N2OS(=O)(=O)O (relative stereo) [Example 9]
MIC [mg/L]: 16
//
COMPOUND: O=C(NNC(=O)[C@@H]1CC[C@@H]2CN1C(=O)N2OS(=O)(=O)O)[C@@H]1CCCNC1 [Example 2]
MIC [mg/L]: 8
//
COMPOUND: O=C(NNC(=O)[C@H]1CC[C@@H]2CN1C(=O)N2OS(=O)(=O)O)C1CCNCC1 (relative stereo) [Example 13]
MIC [mg/L]: 16

a. O=C(NNC(=O)[C@@H]1CC[C@@H]2CN1C(=O)N2OS(=O)(=O)O)[C@@H]1CCCN1 [Example 1]
b. O=C(NNC(=O)[C@H]1CC[C@@H]2CN1C(=O)N2OS(=O)(=O)O)C1CCCNC1 (mixture of isomers) [Example 14]
[Q] // task: argmin of MIC over [ a , b ] Identify your selection by its label.
[A] b
(b: 8 mg/L, a: 32 mg/L)
